Please provide measured pKd for the entries that follow.
target: ARHGEF12, Q9NZN5-2; test: holdup assay; set-up: key: below the threshold = too weak to quantify, mostly under pKd 3.1 to 4; conditions: plain residues with an end cap or a label only (N-terminal biotin on a linker: ado-ado)
Sequence (Q9NZN5 other isoform, or with tags, fused parts or gaps): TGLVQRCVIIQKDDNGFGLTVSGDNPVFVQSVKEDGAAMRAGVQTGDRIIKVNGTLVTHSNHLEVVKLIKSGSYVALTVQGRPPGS
Answers are plain numbers.

PDGQCTVTEV [RNF146, Q9NTX7] | 4.77

Record pKd per entry; entries follow.
1. DDEDRLVIEI [ZNF831, Q5JPB2]
2. ETQVTAETVI [TMEM225B, P0DP42]
3. TACCHSETVV [TGFA, P01135]
4. VKPQVSESKL [ACOT8, O14734]

1: 3.53; 2: 3.84; 3: 3.56; 4: 4.03
